Biological target: cynomolgus CD3εδ Fc heterodimer (Cy CD3ε Fc / CD3δ Fc-HIS) (cynomolgus) (UniProt Q95LI8)
Sequence (chain, as listed by the source mutant, chain 1 of 2): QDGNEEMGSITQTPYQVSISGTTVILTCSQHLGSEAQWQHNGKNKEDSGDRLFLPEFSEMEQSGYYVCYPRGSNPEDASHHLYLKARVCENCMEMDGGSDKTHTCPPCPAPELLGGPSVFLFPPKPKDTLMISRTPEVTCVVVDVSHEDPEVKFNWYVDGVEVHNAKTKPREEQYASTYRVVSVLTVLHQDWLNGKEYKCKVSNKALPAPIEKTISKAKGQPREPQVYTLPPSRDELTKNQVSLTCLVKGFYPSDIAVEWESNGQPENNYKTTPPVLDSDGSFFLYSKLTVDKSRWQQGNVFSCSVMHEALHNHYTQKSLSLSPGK
Sequence (Q95LI8 22-100, stated change not applied, chain 2 of 2): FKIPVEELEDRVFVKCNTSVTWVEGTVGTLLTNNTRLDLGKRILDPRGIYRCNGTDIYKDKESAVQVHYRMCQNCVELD
Assay: BLI (ForteBio), pH 6.0
Experimental Readout: pKd
Convention used: pKd is expressed as -log10 of the molar concentration.

Req: Endpoint output: pKd of SAD10320_P04_G11 (antibody, V domains shown) VH: QVQLVQSGAEVKKPGASVKVSCKASGFNIKDYYMHWVRQAPGQRLEWMGWIDLENANTIYDAKFQGRVTITRDTSASTAYMELSSLRSEDTAVYYCARDAYRHEFYDVWGQGTLVTVSS VL: DIVMTQSPDSLAVSLGERATINCKSSQSLLNARTGKNYLAWYQQKPGQPPKLLIYWASTRESGVPDRFSGSGSGTDFTLTISSLQAEDVAVYYCKQSYYHRTFGGGTKVEIK . Value?
Resp: 7.80

Req: Endpoint output: pKd of SAD10320_P04_E12 (antibody, V domains shown) VH: QVQLVQSGAEVKKPGASVKVSCKASGFNIKDYYMHWVRQAPGQRLEWMGWIDLENANTIYDAKFQGRVTITRDTSASTAYMELSSLRSEDTAVYYCARDAYGHTFYDVWGQGTLVTVSS VL: DIVMTQSPDSLAVSLGERATINCKSSQSLLNARTGKNYLAWYQQKPGQPPKLLIYWASTRESGVPDRFSGSGSGTDFTLTISSLQAEDVAVYYCKQSYHVRTFGGGTKVEIK . Value?
Resp: 7.10

Req: Endpoint output: pKd of SAD10320_P04_D11 (antibody, V domains shown) VH: QVQLVQSGAEVKKPGASVKVSCKASGFNIKDYYMHWVRQAPGQRLQWMGWIDLENANTIYDAKFQGRVTITRDTSASTAYMELSSLRSEDTAVYYCARDAYGHVFYDVWGQGTLVTVSS VL: DIVMTQSPDSLAVSLGERATINCKSSQSLLNARTGKNYLAWYQQKPGQPPKLLIYWASTRESGVPDRFSGSGSGTDFTLTISSLQAEDVAVYYCKQSYHHRTFGGGTKVEIK . Value?
Resp: 7.77

Cited source for all entries: patent US20220380463A1
